Entry source: paper PMC1660542

# protocol.notes: Erythrocyte hemolysis assay;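 also: compounds tested at their MIC and at 4× MIC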
# Assay type: cell-based, human
# run.parameters: human, at MIC for S. epidermidis ATCC12228; 1 hour, 37°C
# Procedure: Cytotoxicity of the antibacterial compounds on cultured Vero cell was measured by using the Cell Proliferation Kit I (MTT) (Roche, Indianapolis, USA) according to the manufacturer's protocol. […] Hemolytic activities of the compounds were determined by using healthy human erythrocytes. […] Volumes of 100 μl supernatants were transferred to another sterile plate and hemoglobin release from the cells was determined at 570 nm. […]
observation.type: hemolysis at 1 h (%)
Return type: number; implicit unit %.

// field: hemolysis at 1 h; key: CCOc1cccc(N2C(=O)/C(=C\c3ccc(OCc4ccc(F)cc4)c(Br)c3)C(=O)NC2=S)c1 [Compound 6] ; value = 1.1
